Just for reference, ChEMBL document CHEMBL1201862 is where these values come from.

Each entry below carries its reported GI50.
- Tested on: SW-620
- test-summary: NCI tumour cell line growth inhibition, 48 h
Active and inactive are the calls of the source. Rule as the data show it: active = GI50 up to about 1.1 µM and inactive = higher.

Observe how each entry below is paired with its result.
INSERT INTO results (compound, observed_measurement) VALUES
  ('O=C(O)CCSC(=O)Nc1ccc([N+](=O)[O-])cc1', '> 100 µM (inactive)'),
  ('O=C1c2ccccc2C(=O)c2c1nc1ccccc1c2-c1cncc(-c2c3c(nc4ccccc24)C(=O)c2ccccc2C3=O)c1', '6.15 µM (inactive)'),
  ('COc1cc(OC)cc(C(=O)NC2=C(Cl)C(=O)c3ccccc3C2=O)c1', '1.01 µM (active)'),
  ('NC(=O)CC[C@H]1C(=O)N=C(N)N1C(=O)OCc1ccccc1', '> 100 µM (inactive)'),
  ('CO/N=C(/C(=O)Nc1c[n+](CC(=O)[O-])cs1)c1csc(N)n1', '> 100 µM (inactive)'),
  ('CC(=O)Nc1ccc2c3c(cc(O)c2c1)N(C(=O)CCCCCCC(=O)N1CC(CCl)c2c1cc(O)c1cc(NC(C)=O)ccc21)CC3CCl (stereo unspecified)', '0.0151 µM (active)'),
  ('CN1C/C(=C\c2ccccc2[N+](=O)[O-])C(=O)/C(=C/c2ccccc2[N+](=O)[O-])C1', '0.173 µM (active)'),
  ('C=CC(C1=CC(=O)C(OC)=CC1=O)c1ccccc1 (stereo unspecified) [4-METHOXYDALBERGIONE]', '19.5 µM (inactive)');

Find the measured GI50 of "COC(=O)c1cc(=O)nc2sc3cccc(C)c3n12" and report it. 30.3 µM (inactive)

Find the measured GI50 of CC1(OCc2ccccc2)C(=O)N2C1N(C(=O)OCc1ccccc1)CC2(C)C (stereo unspecified) and report it. > 100 µM (inactive)

Find the measured GI50 of CC(C)(C)[Si](C)(C)OCC1OC(n2cnc3c(N)ncnc32)C(O)C1O (stereo unspecified) and report it. > 100 µM (inactive)

Find the measured GI50 of CS(=O)(=O)C(C#N)c1nc2ccccc2nc1Cl (stereo unspecified) and report it. > 100 µM (inactive)

Find the measured GI50 of "Cc1ccc(NC(=O)/C(Cl)=C(/Cl)C(=O)O)cc1" and report it. 15.1 µM (inactive)
